Cited source: patent US10442815B2

assay: Plasma PK of compound K of WO 2011/021038 in male Balb/c mice; assay type: in vivo, mouse; details: IV, 3 mg/kg; male Balb/c mouse plasma; read-out: Vss
observable: Vd (L/kg)
Answers are plain numbers, in L/kg.

Sample c1cc(-c2nc(N3CCOCC3)c3oc4ncc(CN5CCOCC5)cc4c3n2)c2cc[nH]c2c1 ; Vd observed: 1.81

====

assay: Plasma PK of comparative compound without sulfur moiety in male CD1 mice; type: in vivo, mouse; settings: plasma; PO 10 mg/kg vs IV 5 mg/kg; male CD1 mouse; Mesylate Salt
observable: bioavailability (%)
Answers are plain numbers, in %.

Sample c1cc(-c2nc(N3CCOCC3)c3oc4ncc(CN5CCCCC5)cc4c3n2)c2cc[nH]c2c1 ; bioavailability observed: 27.8
